Tested on: LOC_OS05G30820-cb001
Assay Procedure: thermal shift delta Tm vs DMSO control; higher = stronger stabilization (binding);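 further: purified Escherichia coli-expressed rice kinase domain construct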
Cond: 12.5 µM; protein concentration 2 µM
Structures can show the parent of a compound that is named as a salt.
Labels assigned by thermal shift delta Tm range: interval 1: < 0.4 °C; interval 2: ≥ 0.4 °C and < 0.6 °C; interval 3: ≥ 0.6 °C

>>> df
                                   molecule       target_of_assay         cat
0  CS(=O)(=O)c1ccc(-c2cnc(N)c(C(=O)Nc3ccccc3)n2)cc1  LOC_OS05G30820-cb001  interval 2
1      c1ccc(-c2[nH]ncc2-c2ccnc3ccccc23)nc1  LOC_OS05G30820-cb001  interval 1
2  Cc1cc(Nc2ncnc3ccc(NC4=NC(C)(C)CO4)cc23)ccc1Oc1ccn2ncnc2c1  LOC_OS05G30820-cb001  interval 1
3  O=c1cc(N2CCOCC2)oc2c(-c3ccc4c(c3)OCCO4)csc12  LOC_OS05G30820-cb001  interval 1
4  Cc1nc2c(-c3cnc(N)nc3)nc(N3CCOCC3)nc2n1C(C)C  LOC_OS05G30820-cb001  interval 1

State the band of COc1cc2c3cc1Oc1c(OC)c(OC)cc4c1[C@@H](Cc1ccc(O)c(c1)Oc1ccc(cc1)C[C@@H]3N(C)CC2)N(C)CC4 [Berbamine (dihydrochloride)]
interval 2

Please indicate the class for C[C@@H](Nc1cc(F)cc(F)c1)c1cc(C(=O)N(C)C)cc2c(=O)cc(N3CCOCC3)oc12 based on its thermal shift delta Tm.
interval 2

Please classify: Nc1nc2cc(-c3ccc4ncc(C(=O)N5CCOCC5)n4c3)ccc2o1
interval 1

# bin label for CCCCCCCCc1ccc(CCC(N)(CO)CO)cc1 [Fingolimod (FTY720) HCl]
interval 1

Each molecule maps to one class by thermal shift delta Tm. Which class for C=CCc1ccc(O)c(-c2ccc(O)c(CC=C)c2)c1 ?
interval 3

====

System: LOC_OS02G17970-cb001
Assay Procedure: thermal shift delta Tm vs DMSO control; higher = stronger stabilization (binding)
Cond: 12.5 µM; protein concentration 2 µM
The label depends only on thermal shift delta Tm: TRUE if it is at least 0.9 °C, FALSE if it is smaller.

Use the examples below as a reference point.
>>> df
                                   molecule    cat
0  CCOc1ccn(-c2ccc(F)cc2)c(=O)c1C(=O)Nc1ccc(Oc2ccnc(N)c2Cl)c(F)c1   TRUE
1  Cc1cc(Nc2cc(N3CCN(C)CC3)nc(/C=C/c3ccccc3)n2)n[nH]1 [ENMD-2076 L-(+)-Tartaric acid]   TRUE
2  Cc1cccc(Nc2nc(NC3CCCCC3N)ncc2C(N)=O)c1 (stereo not given)  FALSE
3  COc1cc(N2CCN(C)CC2)ccc1Nc1nccc(-c2cn(C)c3cnccc23)n1  FALSE

Answer whether thermal shift delta Tm of Cc1ccc(C(=O)Nc2ccc(Oc3cc4cnn(C)c4cc3-c3cn[nH]c3)c(F)c2)c(=O)n1-c1ccc(F)cc1 is greater than or equal to 0.9 °C.
TRUE

====

Tested on: LOC_OS01G21960-cb002
Assay Procedure: thermal shift delta Tm vs DMSO control; higher = stronger stabilization (binding)
Cond: 12.5 µM; protein concentration 2 µM
Tag: Yes if measured thermal shift delta Tm is not below 0.1 °C, No if it is.

Solved cases below.
Compound	Cat
Cn1c2ccccc2c2c3c(c4c5ccccc5n(CCC#N)c4c21)CNC3=O	Yes
CCc1cnn2c(NCc3ccc[n+]([O-])c3)cc(N3CCCC[C@H]3CCO)nc12	Yes
CO[C@H]1C[C@@H]2CC[C@@H](C)[C@@](O)(O2)C(=O)C(=O)N2CCCC[C@H]2C(=O)O[C@H]([C@H](C)C[C@@H]2CC[C@@H](OP(C)(C)=O)[C@H](OC)C2)CC(=O)[C@H](C)/C=C(\C)[C@@H](O)[C@@H](OC)C(=O)[C@H](C)C[C@H](C)/C=C/C=C/C=C/1C	No

Test whether the compound CNC(=O)c1ccccc1Sc1ccc2c(/C=C/c3ccccn3)n[nH]c2c1 records thermal shift delta Tm of 0.1 °C or higher.
Yes

Could you please find out whether Cc1ccc(CNc2ncnc3ccc(-c4ccc(CO)o4)cc23)o1 has thermal shift delta Tm that meets 0.1 °C or exceeds it?
Yes

Hi, just wondering whether Cc1cc(Nc2cc(N3CCN(C)CC3)nc(/C=C/c3ccccc3)n2)n[nH]1 [ENMD-2076 L-(+)-Tartaric acid] shows thermal shift delta Tm of 0.1 °C or higher.
Yes
